Value source: the supplement of paper PMC10567573

B1: FBXO34 (parent)
chain: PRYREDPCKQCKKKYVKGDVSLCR

# Variants of: B1
# method-description: protein stability index of a GFP-peptide fusion (GPS, HEK-293T) (PSI 1-6); higher = more stable;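 also: lentivirally expressed fusions sorted by FACS into six bins by GFP to DsRed ratio, PSI derived from sequencing read proportions per bin multiplied by bin number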
# measurement-context: c terminus: a fixed tail appended
Each entry below carries its reported protein stability index.
Answer as a number with no unit attached.

- sequence-change: "R2S"
  measurement-label: "protein stability index"
  obs-value: 3.03

Query block: Given the variant "K17D" , write its reported protein stability index.
Result block: 2.52

Query block: Using known records, supply protein stability index for "C11R"
Result block: 3.77

Query block: Please list protein stability index recorded for the variant "Y3M"
Result block: 2.56
